Test system: DIV30
Measurement Notes: qHTS profiling for inhibitors of Plasmodium falciparum proliferation (AID 504749); note: nearly all actives have a fitted effect of over 60% in size
Details: P. falciparum in erythrocytes, SYBR Green DNA, 72 h; series mostly up to 12.8 µM
Results filed as inconclusive are left out. The source made the active and inactive calls. Calls come from the whole dose curve; as a rule, active = well fitted inhibition curve with a large enough effect; inconclusive = small, poorly fitted or top-dose-only effect; inactive = flat fitted curve, though single readings scatter.
Pick one: 1 (active), -1 (inactive)

Record excerpt, results attached:
Molecule	Label
COc1cc(N[C@@H](C)CCCN)c2ncccc2c1	1
CO[C@H]1[C@@H](OC(N)=O)[C@H](O)[C@@H](Oc2ccc3c(O)c(NC(=O)c4ccc(O)c(CC=C(C)C)c4)c(=O)oc3c2C)OC1(C)C	-1
CC[C@H]1NC(=O)c2cc(S(N)(=O)=O)c(Cl)cc2N1	-1

### Prompt Entry CC(C)NC[C@H]1CCc2cc(CO)c([N+](=O)[O-])cc2N1 : call = ?
### Response -1

### Prompt Entry NC[C@@H]1O[C@H](O[C@@H]2[C@H](O[C@@H]3O[C@H](CO)[C@@H](O)[C@@H]3O)[C@@H](O)[C@@H](N)C[C@H]2N)[C@@H](N)[C@H](O)[C@@H]1O : call = ?
### Response -1

Each recorded value in this set is attributed to PubChem BioAssay (NCATS).
